Listed here: items and their measured inhibition at 2 µM.
System Name: COX-1 (Ovis aries)
Construct: purchased Cayman chemicals, USA
Sequence (P05979 25-600): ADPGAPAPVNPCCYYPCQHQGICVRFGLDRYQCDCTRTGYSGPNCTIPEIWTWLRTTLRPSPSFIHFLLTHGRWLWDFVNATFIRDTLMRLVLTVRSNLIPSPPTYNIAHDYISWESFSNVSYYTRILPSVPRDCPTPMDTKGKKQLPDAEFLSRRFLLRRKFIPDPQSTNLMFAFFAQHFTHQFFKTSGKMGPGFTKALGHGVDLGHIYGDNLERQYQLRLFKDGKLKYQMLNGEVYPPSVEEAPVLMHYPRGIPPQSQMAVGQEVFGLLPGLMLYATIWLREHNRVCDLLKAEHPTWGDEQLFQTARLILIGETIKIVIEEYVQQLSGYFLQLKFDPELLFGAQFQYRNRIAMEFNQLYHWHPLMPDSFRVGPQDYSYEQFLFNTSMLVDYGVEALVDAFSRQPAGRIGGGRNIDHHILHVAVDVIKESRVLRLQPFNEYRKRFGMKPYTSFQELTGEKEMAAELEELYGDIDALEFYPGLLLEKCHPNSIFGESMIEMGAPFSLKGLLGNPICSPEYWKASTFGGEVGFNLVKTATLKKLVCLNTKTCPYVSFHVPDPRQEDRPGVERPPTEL
Test Details: In vitro cyclooxygenase inhibitory assay (Cayman colorimetric COX (ovine) inhibitor screening kit), COX-1
Assay type: biochemical
Conditions Used: read-out: COX-1 (%) inhibition

| Compound | System Name | Unit Abbrev | inhibition at 2 µM |
| --- | --- | --- | --- |
| Cc1ccc(S(=O)(=O)N2CCC[C@H]2C(=O)Nc2cc(C)ccn2)cc1 [Compound 7p] | COX-1 (Ovis aries) | % | 8 |
| Cc1ccnc(NC(=O)[C@@H]2CCCN2S(=O)(=O)c2ccc([N+](=O)[O-])cc2)c1 [Compound 7h] | COX-1 (Ovis aries) | % | 30 |
| Cc1ccnc(NC(=O)[C@@H]2CC(O)CN2S(=O)(=O)c2ccc([N+](=O)[O-])cc2)c1 (some centres unmarked) [Compound 7g] | COX-1 (Ovis aries) | % | 18 |
| Cc1ccnc(NC(=O)[C@H](Cc2cc3ccccc3[nH]2)N(C(=O)c2ccccc2)S(=O)(=O)c2ccc([N+](=O)[O-])cc2)c1 [Compound 7c] | COX-1 (Ovis aries) | % | 2 |
| Cc1ccc(S(=O)(=O)N2CC(O)C[C@H]2C(=O)Nc2cc(C)ccn2)cc1 (some centres unmarked) [Compound 7o] | COX-1 (Ovis aries) | % | 6 |
